pKi: −log10 of the molar value.
Here's what we have: pKi numbers for human GalR3 receptor (Homo sapiens, UniProt O60755).
readout_name: pKi

>  <compound>
COc1ccc(N2C(=O)C(=Nc3ccc(Cl)c(Cl)c3)c3cc(Cl)ccc32)cn1 (racemic)

>  <measurement_target>
human GalR3 receptor (Homo sapiens, UniProt O60755)
Sequence (O60755 whole entry): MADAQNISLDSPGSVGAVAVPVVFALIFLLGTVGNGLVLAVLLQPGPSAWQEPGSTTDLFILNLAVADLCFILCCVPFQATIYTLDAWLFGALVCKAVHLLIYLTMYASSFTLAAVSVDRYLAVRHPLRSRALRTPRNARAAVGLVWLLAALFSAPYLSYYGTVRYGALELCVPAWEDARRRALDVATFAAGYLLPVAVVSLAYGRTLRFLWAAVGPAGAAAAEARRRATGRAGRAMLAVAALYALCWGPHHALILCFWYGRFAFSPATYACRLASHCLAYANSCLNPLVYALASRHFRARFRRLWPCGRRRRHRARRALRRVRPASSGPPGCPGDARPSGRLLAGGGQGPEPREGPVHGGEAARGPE

>  <readout_name>
pKi

>  <readout_value>
7.70

$$$$

[a] O=C1/C(=N\c2ccc3c(c2)OC(F)(F)O3)c2ccccc2N1c1ccc(O)cc1
[b] O=C1/C(=N\c2ccc(Cl)c(Cl)c2)c2ccccc2N1c1ccc(O)cc1
Query: # min-compare on pKi between a and b Answer by stating the label of the chosen item.
Result: a
(a: 7.14, b: 7.57)
